meta.source: PubChem BioAssay AID720598

Would you kindly list AC50 for each of these molecules?
tested on: HT-29 viability, CellTiter-Glo ATP luminescence, 8-48 h; assay: HT-29 colorectal cell cytotoxicity over time, dose response, HRas target identification project, CellTiter-Glo, multiple timepoints, dry powder (AID 720598); settings: measured here: 8 h treatment
A number alone suffices; assume nM.

Value of measured AC50 for the entry CC(C)(C)OC(=O)NCCOCCOCCOc1ccc(N(C(=O)CCl)C(C(=O)NCCc2ccccc2)c2cccs2)cc1Cl (stereo not given) : 742

Value of measured AC50 for the entry C#CCCCC(=O)NCCOCCOCCOc1ccc(N(C(=O)CCl)C(C(=O)NCCc2ccccc2)c2cccs2)cc1Cl (stereo not given) : 11900

Value of measured AC50 for the entry COC(=O)c1ccc([C@@H]2c3[nH]c4ccccc4c3C[C@@H](C(=O)OC)N2C(=O)CCl)cc1 : 486

Value of measured AC50 for the entry COc1ccc(N(C(=O)CCl)C(C(=O)NCCc2ccccc2)c2cccs2)cc1Cl (stereo not given) : 729

Value of measured AC50 for the entry Cc1onc(C(=O)N2CCN(C(c3ccc(Cl)cc3)c3ccc(Cl)cc3)CC2)c1[N+](=O)[O-] : 2760

---

test system: HT-29 viability, CellTiter-Glo ATP luminescence, 8-48 h; assay: HT-29 colorectal cell cytotoxicity over time, dose response, HRas target identification project, CellTiter-Glo, multiple timepoints, dry powder (AID 720598); details: measured here: 24 h treatment
ENDPOINT: AC50 (nM)
A number alone suffices; assume nM.

Value of measured AC50 for the entry Cc1onc(C(=O)N2CCN(C(c3ccc(Cl)cc3)c3ccc(Cl)cc3)CC2)c1[N+](=O)[O-] : 594

Value of measured AC50 for the entry C#CCCCC(=O)NCCOCCOCCOc1ccc(N(C(=O)CCl)C(C(=O)NCCc2ccccc2)c2cccs2)cc1Cl (stereo not given) : 1510

Value of measured AC50 for the entry COc1ccc(N(C(=O)CCl)C(C(=O)NCCc2ccccc2)c2cccs2)cc1Cl (stereo not given) : 103

Value of measured AC50 for the entry CC(C)(C)OC(=O)NCCOCCOCCOc1ccc(N(C(=O)CCl)C(C(=O)NCCc2ccccc2)c2cccs2)cc1Cl (stereo not given) : 448

Value of measured AC50 for the entry COC(=O)c1ccc([C@@H]2c3[nH]c4ccccc4c3C[C@@H](C(=O)OC)N2C(=O)CCl)cc1 : 133
